- System: SK-MEL-28 melanoma
- Assay Text: NCI-60 one-dose screen, 48 h
- Measurement Conditions: 10 µM unless noted
The panel holds about 83,000 compounds, 20% with a hit somewhere; the sample as a whole holds those more often. Activity calls are given as the source filed them. How the source made its calls: active means growth percent below 10; inactive means the rest.
API: response.call in active, inactive

C=C1CCC2C3(C)COC(c4cc(F)cc(F)c4)OC3CCC2(C)C1CC(O)C1=CCOC1=O (stereo not drawn)	inactive
CC1=C(C(=O)OC(C)C)C(c2cccc(O)c2)NC(=S)N1 (stereo not drawn)	inactive
CCN1C(=O)/C(=N\N=C(/C)c2ccc3c(c2)Nc2ccccc2S3)c2cc(Cl)ccc21	inactive

(Q) What classification did Cn1cc(-c2nnc(N)nc2-c2c[nH]c3ccc(Br)cc23)c2cc(Br)cnc21 end up with in this test?
(A) inactive

(Q) What about COc1ccc(-c2ccnc(SCc3cc4ccccc4[nH]c3=O)n2)cc1 ?
(A) inactive

(Q) Another: CCCCCCCS(=O)(=O)N1CCCC(C(=O)Nc2nc3ccc(NC(=O)c4ccc(F)c(OC)c4F)cc3s2)C1 (stereo not drawn)
(A) inactive

(Q) // query: Nc1nnc(-c2c[nH]c3ccc(Br)cc23)c(-c2c[nH]c3ncc(Br)cc23)n1
(A) inactive

(Q) Also, O=C(NNc1nc2cc(F)ccc2n2c(CN3CCCCC3)ccc12)c1cnccn1 please.
(A) active

(Q) Next up: CN(C)c1nc(NCCNS(=O)(=O)c2ccc(C3=Nc4c(N)nc(N)nc4NC(c4ccc(F)cc4)C3)cc2)nc(Nc2ccc(F)cc2)n1 (stereo not drawn)
(A) inactive

(Q) // query: Cc1ccc(-c2nc(C#N)c(S(=O)(=O)N3CCN(S(=O)(=O)c4ccccc4)CC3)o2)cc1
(A) inactive

(Q) Now consider Cc1cc2nc3c4ccccc4n(CCNCCN(C)C)c3nc2cc1C and answer again.
(A) active

(Q) And what about the compound O=C(Cn1c(/C=C/c2ccccc2)nc2ccccc2c1=O)Nc1ccccc1 ?
(A) inactive

(Q) Do the same for Cc1cc2c(cc1Cl)C(=O)/C(=C/c1ccc(F)cc1)O2 please
(A) inactive

(Q) Again, but for O=c1[nH]c2ccccc2cc1CSc1cccc(Nc2nccc(-c3ccc4ccccc4c3)n2)c1
(A) inactive

(Q) Same read-out for CN1CCN(Cc2ccc(C(=O)Nc3cccc(C#Cc4cccc5[nH]nc(N)c45)c3)cc2C(F)(F)F)CC1 ?
(A) active

(Q) Can you handle CN(C)c1ccnc(CNCCSC2(c3ccc(C(F)(F)F)cc3)c3ccccc3C=Cc3ccccc32)c1 next?
(A) active

(Q) Also, Cc1ccc(NC(=O)[C@]23CCC(C)(C)CC2C2=CCC4[C@@]5(C)C[C@@H](O)[C@H](O)[C@@](C)(CO)C5CC[C@@]4(C)[C@]2(C)CC3)cc1 (stereo partly drawn) please.
(A) inactive

(Q) Another compound: CN(C)c1nc(NCCNS(=O)(=O)c2ccc(C(=O)/C=C/c3ccc(F)cc3)cc2)nc(Nc2ccc(F)cc2)n1
(A) active
